# System: CP286
# ASSAY: qHTS profiling for inhibitors of Plasmodium falciparum proliferation (AID 504749); further: nearly all actives have a fitted effect of over 60% in size
# PROTOCOL CONDITIONS: P. falciparum in erythrocytes, SYBR Green DNA, 72 h; series mostly up to 28.7 µM
Results filed as inconclusive are left out. Activity calls are given as the source filed them. The call rests on the fitted dose curve; in most records, active means well fitted inhibition curve with a large enough effect; inconclusive means small, poorly fitted or top-dose-only effect; inactive means flat fitted curve, though single readings scatter.
Response enum: active, inactive

Which outcome was entered for the molecule CCOc1nc2cccc(C(=O)O)c2n1Cc1ccc(-c2ccccc2-c2nn[nH]n2)cc1 in this test?
inactive

Which outcome was entered for the molecule Oc1cn2c(n1)Nc1ccc(Cl)c(Cl)c1C2 in this test?
inactive

Which outcome was entered for the molecule O=C(O)CN1C(=O)c2cccc3cccc(c23)C1=O in this test?
inactive

Which outcome was entered for the molecule Cn1c(=O)c2c(ncn2CC2OCCO2)n(C)c1=O in this test?
inactive

Which outcome was entered for the molecule CC1(C)[C@@H]2CC[C@@]1(C)C(=O)C2 in this test?
inactive

Which outcome was entered for the molecule NCCNCCNCCN in this test?
inactive

Which outcome was entered for the molecule CNCCCC1c2ccccc2C=Cc2ccccc21 in this test?
inactive

Which outcome was entered for the molecule O=S(=O)(O)c1cc(I)c(O)c2ncccc12 in this test?
inactive

Which outcome was entered for the molecule [O-][n+]1cccc(CO)c1 in this test?
inactive

Which outcome was entered for the molecule CNCCC(Oc1ccc(C(F)(F)F)cc1)c1ccccc1 (stereo not drawn) in this test?
active

Which outcome was entered for the molecule C[C@@H]1CN(c2c(F)c(F)c3c(=O)c(C(=O)O)cn(C4CC4)c3c2F)C[C@H](C)N1 in this test?
inactive

Which outcome was entered for the molecule Cc1cc(CC(=O)O)n(C)c1C(=O)c1ccc(Cl)cc1 in this test?
inactive

Which outcome was entered for the molecule Cc1cccc(C)c1NC(=O)CN(CC(=O)O)CC(=O)O in this test?
inactive
